test system: pigweed (Amaranthus retroflexus); assay: Test A preemergence; type: in vivo; settings: Amaranthus retroflexus, pre-emergence, 240 h, Preemergence, 125 g ai/ha; 0 to 100 scale (0 no effect, 100 complete control); read-out: Plant response rating, Pigweed
Text: […]
Property: pest or weed control at 125 g/ha; scope: individual compounds
READOUT KIND: pest or weed control at 125 g/ha (%)

COMPOUND | DISPLAY UNIT | VALUE
CC(C)c1cccc([C@H]2CN(C)C(=O)[C@@H]2C(=O)Nc2cccc(F)c2F)c1 | % | 30
Cc1c(F)ccc([C@H]2CNC(=O)[C@@H]2C(=O)Nc2ccc(F)cc2F)c1F | % | 0
CN1C[C@H](c2cccc(C(F)(F)F)c2)[C@@H](C(=O)Nc2ccc(F)c(F)c2F)C1=O | % | 70
Cc1ccc([C@H]2CN(C)C(=O)[C@@H]2C(=O)Nc2ccccc2F)cc1Cl | % | 30
Cc1ccc([C@H]2CN(C)C(=O)[C@@H]2C(=O)Nc2ccc(F)c(F)c2F)cc1 | % | 70
CN1C[C@H](c2cccc(C(C)(F)F)c2)[C@@H](C(=O)Nc2cccc(F)c2F)C1=O | % | 70
CN1C[C@H](c2ccc3c(c2)CCO3)[C@@H](C(=O)Nc2ccc(F)c(F)c2F)C1=O | % | 0
Cc1cc([C@H]2CN(C)C(=O)[C@@H]2C(=O)Nc2ccccc2[S+](C)[O-])ccc1F (some centres unmarked) | % | 0
